B1: Homeobox protein cut-like 1, residues 548 to 629; numbered along this chain, P39880 (parent)
chain: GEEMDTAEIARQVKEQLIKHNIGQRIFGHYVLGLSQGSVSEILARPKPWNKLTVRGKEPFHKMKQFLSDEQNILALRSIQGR

Variants of: B1
Assay: abundance fitness (aPCA) (normalised: wild type 0, dead -1); higher = more abundant; growth selection in yeast, the domain comes from the species named
Settings: Homo sapiens
# abundance fitness binned as class 1 (below -0.5), class 2 (-0.5 to below -0.1), class 3 (-0.1 or more)

Please review the entries below; each comes with its answer.
GEEMDTAEIARQVKEQLIKHNIGQRIFGHYVLGLSQGSVSEILARQKPWNKLTVRGKEPFHKMKQFLSDEQNILALRSIQGR [P46Q] ... class 2
GEEMDTAEIARQVKEQLIKHNIGQRIFGHYVLGLSQGSVSEILARPKPWNKLTVRGTEPFHKMKQFLSDEQNILALRSIQGR [K57T] ... class 2
GEEMDTAEIARQVKEQLIKHNIGQRIFGHYVLGLSQGSVSEILARPKPWNKLTVRGKEPFHKMKQFLSDEQNINALRSIQGR [L74N] ... class 3
GEEMDTAEIARQVKEQLIKHNIGQRIFGHYVLGLSQGSVSEILARPKPWNKLTVRGQEPFHKMKQFLSDEQNILALRSIQGR [K57Q] ... class 3
GEERDTAEIARQVKEQLIKHNIGQRIFGHYVLGLSQGSVSEILARPKPWNKLTVRGKEPFHKMKQFLSDEQNILALRSIQGR [M4R] ... class 1

**Q:** Note: place this variant into its band. Item: GEEMDTAEIARQVKEQLIKHNIGQRIFGHYVLGLSQGSVSEILVRPKPWNKLTVRGKEPFHKMKQFLSDEQNILALRSIQGR [A44V]
**A:** class 2

**Q:** // query: GEEMDTAEIARQVKEQLIKHNIGQRIFGHYVLGLSQGSVSEILARPKRWNKLTVRGKEPFHKMKQFLSDEQNILALRSIQGR [P48R]
**A:** class 2

**Q:** // query: GEEMDTAEIARQVKEQLIKHNIGQRIFGHYVLGLSQCSVSEILARPKPWNKLTVRGKEPFHKMKQFLSDEQNILALRSIQGR [G37C]
**A:** class 3

**Q:** // query: GEEMDTAEIARQVKEQLIKHNIGQRIFGHYVLNLSQGSVSEILARPKPWNKLTVRGKEPFHKMKQFLSDEQNILALRSIQGR [G33N]
**A:** class 2

**Q:** // query: GEEMDTAEIARQPKEQLIKHNIGQRIFGHYVLGLSQGSVSEILARPKPWNKLTVRGKEPFHKMKQFLSDEQNILALRSIQGR [V13P]
**A:** class 1

**Q:** // query: GEEMDTAEIARQVKEQLIKHNIGQRIFGHYVLGLSQGSKSEILARPKPWNKLTVRGKEPFHKMKQFLSDEQNILALRSIQGR [V39K]
**A:** class 1
